- Tested system: Galectin-1 (Homo sapiens)
- Sequence (P09382 whole entry): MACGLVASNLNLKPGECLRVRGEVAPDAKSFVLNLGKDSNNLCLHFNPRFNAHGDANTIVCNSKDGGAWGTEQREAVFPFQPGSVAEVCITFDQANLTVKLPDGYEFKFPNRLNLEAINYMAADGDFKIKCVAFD
Experimental readout: IC50 (nM)
The reply should contain only the number, in nM.

# IC50 of CO[C@@H]1[C@@H](n2cc(-c3ccc(Cl)c(F)c3F)nn2)[C@@H](O)[C@@H](CO)O[C@H]1c1nc(C)nn1-c1ccc2ncsc2c1 = 2720

###

- Assay procedure: AUC in mouse at 10 mg/kg,po administration
- Assay type: ADME, organism-based
- Parameters: dose 10 mg/kg, route po
- Test context: in vivo
Experimental readout: AUC (µM·h)
The reply should contain only the number, in µM·h.

# AUC of CO[C@H]1C(C(=O)N(C)c2ccc3ncsc3c2)O[C@H](CO)[C@H](O)[C@@H]1n1cc(-c2ccc(Cl)c(F)c2F)nn1 (single isomer, unassigned) = 13

# AUC of CO[C@@H]1[C@@H](n2cc(-c3ccc(Cl)c(F)c3F)nn2)[C@@H](O)[C@@H](CO)O[C@H]1c1nc(C)nn1-c1ccc2ncsc2c1 = 14

# AUC of CO[C@@H]1[C@@H](n2cc(-c3ccc(Br)c(F)c3F)nn2)[C@@H](O)[C@@H](CO)O[C@H]1c1nc(C)nn1-c1ccc2ncsc2c1 = 8.7

# AUC of Cc1nc([C@@H]2O[C@H](CO)[C@H](O)[C@H](n3cc(-c4ccc(Br)c(F)c4F)nn3)[C@H]2O)n(-c2ccc3ncsc3c2)n1 = 3

###

Kindly supply the reported Papp at 4 h values for the records listed here.
- Assay procedure: Permeability of the compound at pH 5.5 incubated for 4 hrs by PAMPA based SpectraMax UV-plate reader analysis
- Type: ADME
- Test context: read-out: permeability
Respond with the figure and its unit, in that order.

# Papp at 4 h of Cc1nc([C@@H]2O[C@H](CO)[C@H](O)[C@H](n3cc(-c4cc(F)c(F)c(F)c4)nn3)[C@H]2O)n(-c2ccc3ncsc3c2)n1 = 1.5 ×10⁻⁶ cm/s

# Papp at 4 h of Cc1nc([C@@H]2O[C@H](CO)[C@H](O)[C@H](n3cc(-c4cc(F)c5ccccc5c4)nn3)[C@H]2O)n(-c2ccc3ncsc3c2)n1 = 9 ×10⁻⁶ cm/s

# Papp at 4 h of CO[C@@H]1[C@@H](n2cc(-c3cc(F)c(Br)c(F)c3)nn2)[C@@H](O)[C@@H](CO)O[C@H]1C(=O)N(C)c1ccc2ncsc2c1 = 57.8 ×10⁻⁶ cm/s

###

// log10 IC50 collected for Galectin-3 (Mus musculus)
Please keep in mind that the values are log10 of IC50 expressed in µM.

Form: item Cc1nc2ccc(N(C)C(=O)[C@@H]3O[C@H](CO)[C@H](O)[C@H](n4cc(-c5cc(F)c(F)c(F)c5)nn4)[C@H]3O)cc2s1 ; test system Galectin-3 (Mus musculus); log10 IC50: 0.55

Form: item Cc1nc([C@@H]2O[C@H](CO)[C@H](O)[C@H](n3cc(-c4cc(F)c(F)c(F)c4)nn3)[C@H]2O)n(-c2ccc3ncsc3c2)n1 ; test system Galectin-3 (Mus musculus); log10 IC50: -0.27

Form: item CO[C@@H]1[C@@H](n2cc(-c3cc(F)c(Cl)c(F)c3)nn2)[C@@H](O)[C@@H](CO)O[C@H]1C(=O)N(C)c1ccc2ncsc2c1 ; test system Galectin-3 (Mus musculus); log10 IC50: -0.75

Form: item Cc1nc2ccc(-n3ncnc3[C@@H]3O[C@H](CO)[C@H](O)[C@H](n4cc(-c5cc(F)c(F)c(F)c5)nn4)[C@H]3O)cc2s1 ; test system Galectin-3 (Mus musculus); log10 IC50: 0.09

Form: item CO[C@@H]1[C@@H](n2cc(-c3cc(F)c(F)c(F)c3)nn2)[C@@H](O)[C@@H](CO)O[C@H]1C(=O)N(C)c1ccc2nc(C)sc2c1 ; test system Galectin-3 (Mus musculus); log10 IC50: 0.40

Form: item CO[C@@H]1[C@@H](n2cc(-c3ccc(Br)c(F)c3F)nn2)[C@@H](O)[C@@H](CO)O[C@H]1c1nc(C)nn1-c1ccc2ncsc2c1 ; test system Galectin-3 (Mus musculus); log10 IC50: -1.21

Form: item Cc1nc([C@@H]2O[C@H](CO)[C@H](O)[C@H](n3cc(-c4ccc(Cl)c(F)c4F)nn3)[C@H]2O)n(-c2ccc3ncsc3c2)n1 ; test system Galectin-3 (Mus musculus); log10 IC50: -1.07

Form: item Cc1nc2cc(Cl)c(-n3ncnc3[C@@H]3O[C@H](CO)[C@H](O)[C@H](n4cc(-c5cc(F)c(F)c(F)c5)nn4)[C@H]3O)cc2s1 ; test system Galectin-3 (Mus musculus); log10 IC50: 0.12

Form: item Cc1nc([C@@H]2O[C@H](CO)[C@H](O)[C@H](n3cc(-c4ccc(Br)c(F)c4F)nn3)[C@H]2O)n(-c2ccc3ncsc3c2)n1 ; test system Galectin-3 (Mus musculus); log10 IC50: -1.35

Form: item CCN(C(=O)[C@@H]1O[C@H](CO)[C@H](O)[C@H](n2cc(-c3cc(F)c(Cl)c(F)c3)nn2)[C@H]1OC)c1ccc2ncsc2c1 ; test system Galectin-3 (Mus musculus); log10 IC50: -0.37

###

Experimental readout: IC50 (nM)
The reply should contain only the number, in nM.

Form: item Cc1nc([C@@H]2O[C@H](CO)[C@H](O)[C@H](n3cc(-c4cc(F)c(F)c(F)c4)nn3)[C@H]2O)n(-c2ccc3ncsc3c2)n1 ; test system Galectin-3 (Homo sapiens); IC50: 28

Form: item OC[C@H]1O[C@@H](c2ncnn2-c2ccc3ncsc3c2)[C@H](O)[C@@H](n2cc(-c3cc(F)c(F)c(F)c3)nn2)[C@H]1O ; test system Galectin-3 (Homo sapiens); IC50: 37

Form: item Cc1nc([C@@H]2O[C@H](CO)[C@H](O)[C@H](n3cc(-c4cc(F)c5ccccc5c4)nn3)[C@H]2O)n(-c2ccc3ncsc3c2)n1 ; test system Galectin-3 (Homo sapiens); IC50: 22

###

Kindly supply the reported pIC50 values for the records listed here.
// returns pIC50 (minus log10 of molar concentration), number only

Form: item CO[C@@H]1[C@@H](n2cc(-c3cc(F)c(Br)c(F)c3)nn2)[C@@H](O)[C@@H](CO)O[C@H]1c1nc(C)nn1-c1ccc2ncsc2c1 ; test system Galectin-3 (Homo sapiens); pIC50: 7.52

Form: item Cc1nc([C@@H]2O[C@H](CO)[C@H](O)[C@H](n3cc(-c4cc(F)c(Cl)c(F)c4)nn3)[C@H]2O)n(-c2ccc3ncsc3c2)n1 ; test system Galectin-3 (Homo sapiens); pIC50: 7.74

Form: item Cc1nc2ccc(-n3ncnc3[C@@H]3O[C@H](CO)[C@H](O)[C@H](n4cc(-c5cc(F)c(F)c(F)c5)nn4)[C@H]3O)cc2s1 ; test system Galectin-3 (Homo sapiens); pIC50: 7.20

###

- Assay procedure: Permeability of the compound at pH 7.4 incubated for 4 hrs by PAMPA based SpectraMax UV-plate reader analysis
- Format: ADME
- Test context: read-out: permeability
Experimental readout: Papp at 4 h (×10⁻⁶ cm/s)
The reply should contain only the number, in ×10⁻⁶ cm/s.

# Papp at 4 h of Cc1nc([C@@H]2O[C@H](CO)[C@H](O)[C@H](n3cc(-c4ccc(Cl)c(F)c4F)nn3)[C@H]2O)n(-c2ccc3ncsc3c2)n1 = 16.3

# Papp at 4 h of CO[C@@H]1[C@@H](n2cc(-c3cc(F)c(F)c(F)c3)nn2)[C@@H](O)[C@@H](CO)O[C@H]1C(=O)N(C)c1ccc2nc(C)sc2c1 = 18.6

# Papp at 4 h of CO[C@@H]1[C@@H](n2cc(-c3cc(F)c(F)c(F)c3)nn2)[C@@H](O)[C@@H](CO)O[C@H]1C(=O)N(C)c1ccc2ncsc2c1 = 17.2

###

Kindly supply the reported bioavailability values for the records listed here.
- Assay procedure: Oral bioavailability in mouse at 10 mg/kg administration
- Type: ADME, organism-based
- Test context: in vivo

# bioavailability of CO[C@@H]1[C@@H](n2cc(-c3ccc(Cl)c(F)c3F)nn2)[C@@H](O)[C@@H](CO)O[C@H]1c1nc(C)nn1-c1ccc2ncsc2c1 = 40%

# bioavailability of CO[C@H]1C(C(=O)N(C)c2ccc3ncsc3c2)O[C@H](CO)[C@H](O)[C@@H]1n1cc(-c2ccc(Cl)c(F)c2F)nn1 (single isomer, unassigned) = 52%

###

Kindly supply the reported Ratio IC50 values for the records listed here.
- Species on record: Homo sapiens
- Assay procedure: Selectivity ratio of IC50 for inhibition of human Galectin-9 to IC50 for inhibition of human Galectin-3
No unit in the answer, please; the number alone is enough.

# Ratio IC50 of Cc1nc([C@@H]2O[C@H](CO)[C@H](O)[C@H](n3cc(-c4ccc(Cl)c(F)c4F)nn3)[C@H]2O)n(-c2ccc3ncsc3c2)n1 = 342

# Ratio IC50 of Cc1nc([C@@H]2O[C@H](CO)[C@H](O)[C@H](n3cc(-c4ccc(Br)c(F)c4F)nn3)[C@H]2O)n(-c2ccc3ncsc3c2)n1 = 293

# Ratio IC50 of CO[C@@H]1[C@@H](n2cc(-c3ccc(Cl)c(F)c3F)nn2)[C@@H](O)[C@@H](CO)O[C@H]1c1nc(C)nn1-c1ccc2ncsc2c1 = 321

# Ratio IC50 of CO[C@@H]1[C@@H](n2cc(-c3ccc(Br)c(F)c3F)nn2)[C@@H](O)[C@@H](CO)O[C@H]1c1nc(C)nn1-c1ccc2ncsc2c1 = 186
